subject.of.test: Mcl-1 (Homo sapiens (Human), UniProt Q07820)
Sequence (Q07820 172-327): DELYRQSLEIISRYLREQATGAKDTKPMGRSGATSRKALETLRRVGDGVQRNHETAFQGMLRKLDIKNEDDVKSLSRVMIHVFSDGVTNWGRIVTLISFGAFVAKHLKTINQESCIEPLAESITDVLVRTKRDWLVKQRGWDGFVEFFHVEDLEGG
experiment.description: Fluorescence polarization anisotropy (FPA) competition assay, FITC-Bak or FITC-Bim BH3 peptide
Type: binding
condition.info: read-out: Ki for Inhibition of Mcl-1 by FPA assay
pKi: −log10 of the molar value.
Listing of recorded pKi by entry.
quantity: pKi

# molecule, quantity, prefix.operator, result.number
records = [
    ("Cc1cc(OCCCc2c3n(c4c(-c5c(C)nn(C)c5C)c(Cl)ccc24)[C@H](C)CN(c2ccc(OCc4ccccc4)c4c2cc(C(=O)O)n4C)C3=O)cc(C)c1Cl [Example 299]", "pKi", "=", 8.70),
    ("Cc1cc(OCCCc2c3n(c4c(-c5c(C)nn(C)c5C)c(Cl)ccc24)[C@H](C)CN(c2cn(C)c4ccccc24)C3=O)cc(C)c1Cl", "pKi", "=", 8.52),
    ("Cc1cccc(OCCCc2c3n(c4c(-c5c(C)nn(C)c5C)c(Cl)ccc24)[C@H](C)CN(c2cn(C)c4ccc(C(=O)O)cc24)C3=O)c1", "pKi", ">", 9.00),
    ("Cc1nn(C)c(C)c1-c1c(Cl)ccc2c(CCCOc3ccc(Cl)cc3)c3n(c12)[C@H](C)CN(c1cn(C)c2ccc(C(=O)O)cc12)C3=O", "pKi", "=", 8.89),
    ("Cc1cc(OCCCc2c3n(c4c(-c5c(C)nn(C)c5C)c(Cl)ccc24)[C@H](C)CN(c2ccc(F)c4c(C(=O)O)c[nH]c24)C3=O)cc(C)c1Cl", "pKi", "=", 8.96),
    ("COc1ccc(N2C[C@@H](C)n3c(c(CCCOc4cc(C)c(Cl)c(C)c4)c4ccc(Cl)c(-c5c(C)nn(C)c5C)c43)C2=O)c2c1c(C)c(C(=O)O)n2C", "pKi", ">", 9.00),
]

* * *

subject.of.test: Mcl-1 (Homo sapiens (Human), UniProt Q07820)
experiment.description: TR-FRET binding assay, FITC-Bak peptide and MBP-tagged Mcl-1
condition.info: read-out: Ki for Inhibition of Mcl-1 by TR-FRET assay
Each entry below carries its reported Ki.
quantity: Ki

# molecule, quantity, result
records = [
    ("Cc1cc(OCCCc2c3n(c4c(-c5c(C)ncnc5C)c(Cl)ccc24)[C@H](C)CN(c2cn(C)c4ncc(C(=O)O)nc24)C3=O)cc(C)c1Cl [Example 644]", "Ki", "< 0.2 nM"),
    ("Cc1cc(OCCCc2c3n(c4c(-c5c(C)nn(C)c5C)c(Cl)ccc24)[C@H](C)CN(c2cn(C)c4ccc(-c5nc(C)n(C)n5)cc24)C3=O)cc(C)c1Cl [Example 643]", "Ki", "1.3 nM"),
    ("COc1cc(N2C[C@@H](C)n3c(c(CCCOc4cc(C)c(Cl)c(C)c4)c4ccc(Cl)c(-c5c(C)nn(C)c5C)c43)C2=O)c2c(c1)cc(C(=O)O)n2Cc1ccccn1 [Example 538]", "Ki", "< 0.2 nM"),
    ("COc1ccc(N2C[C@@H](C)n3c(c(CCCOc4cc(C)c(Cl)c(C)c4)c4ccc(Cl)c(-c5c(C)n[nH]c5C)c43)C2=O)c2c1cc(C(=O)O)n2Cc1ccccn1 [Example 724]", "Ki", "< 0.2 nM"),
    ("COCCOCCOc1cc(N2C[C@@H](C)n3c(c(CCCOc4cc(C)c(Cl)c(C)c4)c4ccc(Cl)c(-c5c(C)nn(C)c5C)c43)C2=O)c2c(c1)cc(C(=O)O)n2C [Example 633]", "Ki", "< 0.2 nM"),
]
